# MIC per entry
# System: Pseudomonas aeruginosa
# assay summary: Growth inhibition of Pseudomonas aeruginosa ATCC 27853 incubated for 18 hrs
# Assay type: organism-based
attribute measured: MIC

• CC(C)CCOc1ccc2ccccc2c1-c1c(OCc2cn([C@H](CCCCN)C(=O)N[C@H](CCCNC(=N)N)C(=O)NCc3ccccc3)nn2)ccc2ccccc12.Cl.Cl = 32 µg/mL
• CC(C)CCOc1ccccc1-c1ccccc1OCc1cn([C@H](CCCCN)C(=O)N[C@H](CCCNC(=N)N)Cn2cc(CCc3ccccc3)nn2)nn1.Cl.Cl = 8 µg/mL
• CC(C)CCOc1ccccc1-c1ccccc1OCc1cn([C@H](CCCNC(=N)N)C(=O)Nc2cccc(F)c2)nn1.Cl = > 32 µg/mL
• CC(C)CCOc1ccccc1-c1ccccc1OCc1cn([C@H](CCCNC(=N)N)C(=O)N[C@H](CCCCN)Cn2cc(Cc3ccccc3)nn2)nn1.Cl.Cl = 16 µg/mL
• CC(C)CCOc1ccc2ccccc2c1-c1c(OCc2cn([C@H](CCCNC(=N)N)C(=O)NCCc3ccccc3)nn2)ccc2ccccc12.Cl = > 32 µg/mL
• CC(C)CCOc1ccccc1-c1ccccc1OCc1cn([C@H](CCCNC(=N)N)C(=O)NCCc2ccc(F)cc2)nn1.Cl = > 32 µg/mL
• CC(C)CCOc1ccccc1-c1ccccc1OCc1cn([C@H](CCCNC(=N)N)C(=O)NCc2ccccc2)nn1.Cl = > 32 µg/mL
• CC(C)CCOc1ccc2ccccc2c1-c1c(OCC(=O)N[C@H](CCCNC(=N)N)C(=O)NCCc2ccccc2)ccc2ccccc12.Cl = > 32 µg/mL
• CC(C)CCOc1ccc2ccccc2c1-c1c(OCc2cn([C@H](CCCNC(=N)N)C(=O)N[C@H](CCCCN)Cn3cc(CCc4ccccc4)nn3)nn2)ccc2ccccc12.Cl.Cl = 32 µg/mL
• CC(C)CCOc1ccc2ccccc2c1-c1c(OCc2cn([C@H](CCCCN)C(=O)N[C@H](CCCNC(=N)N)Cn3cc(CC4CCCCC4)nn3)nn2)ccc2ccccc12.Cl.Cl = 32 µg/mL
• CC(C)CCOc1ccccc1-c1ccccc1OCc1cn([C@H](CCCCN)C(=O)N[C@H](CCCNC(=N)N)Cn2cc(C3CCCCC3)nn2)nn1.Cl.Cl = 16 µg/mL
• CC(C)CCOc1ccc2ccccc2c1-c1c(OCc2cn([C@H](CCCCN)C(=O)N[C@H](CCCNC(=N)N)C(=O)NCCc3ccccc3)nn2)ccc2ccccc12.Cl.Cl = 32 µg/mL
• CC(C)CCOc1ccccc1-c1ccccc1OCc1cn([C@H](CCCNC(=N)N)C(=O)N[C@H](CCCCN)Cn2cc(CCc3ccccc3)nn2)nn1.Cl.Cl = 16 µg/mL
